Biological target: SOS1 and KRAS G12D (protein-protein interaction) (Homo sapiens, UniProt Q07889)
Assay: KRAS::SOS1 AlphaScreen binding assay
Settings: assay buffer without EDTA (values not marked with an asterisk); read-out: IC50 (SOS1)
Procedure: KRAS::SOS1 AlphaScreen Binding Assay Low IC50 values are indicative of high potency of the SOS1 inhibitor compound in this assay setting: […] After a 30 minute incubation time 5 μL of bead mix is added into columns 1-23. […] After a further 60 minute incubation, the signal is measured using a PerkinElmer Envision HTS Multilabel Reader using the AlphaScreen specifications from PerkinElmer. […] IC50 values are calculated and analyzed using a 4 parametric logistic model.
pIC50 values for the compounds below.
Units for pIC50: none; it is -log10 of a concentration expressed in mol/L.

Recorded pIC50, per entry:
COc1c(C2(O)CCN(C(C)=O)CC2)cc2c(N[C@H](C)c3cccc(C(F)(F)F)c3F)nc(C)nc2c1C ... 8.15
COc1cc2nc(C)nc(N[C@H](C)c3cccc(C(F)(F)CO)c3)c2cc1C1CCN(C(C)=O)CC1 ... 8.70
COc1cc2nc(C)nc(N[C@H](C)c3cccc(C(F)(F)CO)c3)c2cc1C1CCOCC1 ... 8.52

Now for another entry.
Identify pIC50 associated with the compound `Cc1nc(N[C@H](C)c2cccc(C(F)(F)F)c2)c2cc([C@]3(O)CC[C@H](C(=O)N(C)C)CC3)ccc2n1`
7.57
